test: protein stability index of a GFP-peptide fusion (yeast GPS) (PSI 1-4); higher = more stable; sorted into four equal gates, so the index is relative within each strain
assay.conditions: pdr5∆
List of protein stability index values.

Observe how each entry below is paired with its result.
biopolymer.sequence	protein stability index
QDGGVTPYSNESGLVNA [RPO21]	2.69
SPVTGDNSPSEDFMDIP [SNF2]	3.25
ANFIFSPASGIVDKYIG [RPT4]	2.79
DLETLTMHTKTYAAEIA [RPL32]	2.74
SWASEGISKKTRIAGVV [RPS8A]	2.28

Here's the next entry for you.
Prompt: Using known records, supply protein stability index for KDTTGPKAISNFLIKLS [YCS4]
Response: 2.08

---

test: protein stability index of a GFP-peptide fusion (yeast GPS) (PSI 1-4); higher = more stable; sorted into four equal gates, so the index is relative within each strain
assay.conditions: ubr1∆
Classify as follows. Reported protein stability index greater than or equal to 3: yes (1). Reported protein stability index below: no (0).

Previously resolved entries follow.
biopolymer.sequence	qualitative.label
MGGIREKKAEYFAKLRE [RPP0]	yes (1)
ETEAEEDHMLKKIENTM [RPO21]	yes (1)
NSMDMVDGMAKVPIGLI [RGR1]	yes (1)
VLCLTRSSYMLELVNTP [YCG1]	no (0)
DILSKLYLLLARVFEIW [SNF11]	no (0)

Prompt: Please tell me: is the sequence EATAASHERFFLSQGLH [CSN12] at or over 3 in terms of protein stability index?
Response: no (0)

Prompt: Please tell me: is the sequence ETDHANTENNDPDIPMT [IRR1] at or over 3 in terms of protein stability index?
Response: no (0)

Prompt: Please tell me: is the sequence TVIKFRAGVCEYNEDSR [RPN13] at or over 3 in terms of protein stability index?
Response: no (0)

Prompt: Please tell me: is the sequence LMSCISVGTDPMPIITF [RPB2] at or over 3 in terms of protein stability index?
Response: no (0)

Prompt: Please tell me: is the sequence NLLKFITSNHKSSVPGS [RPN3] at or over 3 in terms of protein stability index?
Response: no (0)

Prompt: Please tell me: is the sequence CFMHLLVQLFLWDSKEL [RPN3] at or over 3 in terms of protein stability index?
Response: no (0)

Prompt: Please tell me: is the sequence PTQITQYTQRLSKLEKA [SRP68] at or over 3 in terms of protein stability index?
Response: no (0)

Prompt: Please tell me: is the sequence VSKSEPKFFLGEENRVR [QCR2] at or over 3 in terms of protein stability index?
Response: yes (1)

Prompt: Please tell me: is the sequence ILLYGPPGTGKTLCARA [RPT1] at or over 3 in terms of protein stability index?
Response: no (0)

Prompt: Please tell me: is the sequence ELPLLSPERFATLGIDP [RPT1] at or over 3 in terms of protein stability index?
Response: no (0)

Prompt: Please tell me: is the sequence TFHDYDMVKLDINPPLV [RRP42] at or over 3 in terms of protein stability index?
Response: yes (1)

Prompt: Please tell me: is the sequence KVEIPLPNEAGRLEIFK [RPT4] at or over 3 in terms of protein stability index?
Response: no (0)

Prompt: Please tell me: is the sequence IQQVVEYADNDEDKFKK [PRP28] at or over 3 in terms of protein stability index?
Response: yes (1)

Prompt: Please tell me: is the sequence RKYSFNYSSLPSPYKTT [YAR002W/NUP60] at or over 3 in terms of protein stability index?
Response: no (0)

Prompt: Please tell me: is the sequence NYLNDMHDSNLQNNSDS [SKP1] at or over 3 in terms of protein stability index?
Response: no (0)

Prompt: Please tell me: is the sequence TDGADENVQIGEDFMEV [SRB4] at or over 3 in terms of protein stability index?
Response: yes (1)

Prompt: Please tell me: is the sequence DALLNSTTEHINIDDLL [YJL039C/NUP192] at or over 3 in terms of protein stability index?
Response: yes (1)

Prompt: Please tell me: is the sequence LKKLEKEYELLTLQEDY [RPT3] at or over 3 in terms of protein stability index?
Response: no (0)

Prompt: Please tell me: is the sequence TPTDVIGVVSLTNGVTE [RRP6] at or over 3 in terms of protein stability index?
Response: yes (1)

---

test: protein stability index of a GFP-peptide fusion (yeast GPS) (PSI 1-4); higher = more stable; sorted into four equal gates, so the index is relative within each strain
assay.conditions: ubr1∆
Classify as follows. Reported protein stability index greater than or equal to 3: label 1. Reported protein stability index below: label 0.

biopolymer.sequence	qualitative.label
IASLERELILAKKQNYK [YCG1]	label 0
MDNKTPVTLAKVIKVLG [RPS28A]	label 0
AQSHQRFNAKVSMVKRA [CDC53]	label 0
HPTIYESLPQYVDFVPM [POP4]	label 0

Kindly consider the entry below.
Prompt: Please tell me: is the sequence ATVPSGRPETYIWRYLP [RPO31] at or over 3 in terms of protein stability index?
Response: label 0

---

List of protein stability index values.
test: protein stability index of a GFP-peptide fusion (yeast GPS) (PSI 1-4); higher = more stable; sorted into four equal gates, so the index is relative within each strain
assay.conditions: ubr1∆

biopolymer.sequence	reported.property	observed
MSKIQVAHSSRLANLID [SMB1]	protein stability index	1.2

Prompt: Using known records, supply protein stability index for GEVMKELSEEKYIVKAS [RPT4]
Response: 3.3

Prompt: Using known records, supply protein stability index for PVYTAQWSATWIAMRRE [PRP8]
Response: 1.9

Prompt: Using known records, supply protein stability index for KKALKVRTSATFRLPKT [RPL25]
Response: 3.18

Prompt: Using known records, supply protein stability index for NNIRQAICRYANVIKAL [RRP4]
Response: 1.43

Prompt: Using known records, supply protein stability index for GSLWVEFCDEPSVGVKT [RPB5]
Response: 2.92

Prompt: Using known records, supply protein stability index for SDSIELLKQYPKDSSST [YJR042W/NUP85]
Response: 2.82

---

test: protein stability index of a GFP-peptide fusion (yeast GPS) (PSI 1-4); higher = more stable; sorted into four equal gates, so the index is relative within each strain
assay.conditions: doa10∆
List of protein stability index values.
Returns: the value as a bare number; no unit string appended.

biopolymer.sequence	protein stability index
ATLGIDPPKGILLYGPP [RPT1]	2.97
IYEKLKNYLKNYILNFK [CDC53]	2.44
TSSKSSSLSAIIVFGYP [YDL088C/ASM4]	2.31
SSWQIYSDENDPSISNN [RRP4]	2.48
EDNGIVKALRNVPGVET [RPL4A]	1.77
EIAGLSPYERRLIDLIR [RPL36A]	2.31
TAFATEFFVQVLTHESL [DLS1]	2.47
KTRKTYCKGKTCRKHTQ [RPL42A]	2.45

Prompt: Using known records, supply protein stability index for SANTNNTCTISTSKFES [SWP82]
Response: 2.59

Prompt: Using known records, supply protein stability index for EASNTPIEHQFNPYGDN [PRE7]
Response: 3.15

Prompt: Using known records, supply protein stability index for SPELSLQRHLSLGIRPC [RRP43]
Response: 2.54

Prompt: Using known records, supply protein stability index for SVPLRKGDRALLVKLSK [BRR2]
Response: 2.46

Prompt: Using known records, supply protein stability index for SALEQAIIYQRGKDGKL [YGL100W/SEH1]
Response: 2.93

Prompt: Using known records, supply protein stability index for ISYTSHIEGVVILKKNP [RPN1]
Response: 2.57

---

test: protein stability index of a GFP-peptide fusion (yeast GPS) (PSI 1-4); higher = more stable; sorted into four equal gates, so the index is relative within each strain
assay.conditions: san1∆
List of protein stability index values.
Returns: the value as a bare number; no unit string appended.

Prompt: Using known records, supply protein stability index for YVNYEISTAKAWGALIT [YML103C/NUP188]
Response: 1.3

Prompt: Using known records, supply protein stability index for DQCKKQRRCLHCGALNG [RPO31]
Response: 2.4

Prompt: Using known records, supply protein stability index for VRLPTKVLKISTRKTPN [RPS20]
Response: 1.7

Prompt: Using known records, supply protein stability index for VSNSGAQDEEIHKQIVI [UBP6]
Response: 3.08

Prompt: Using known records, supply protein stability index for LATRRVLQEYRLTKQAF [RPO21]
Response: 3.01

Prompt: Using known records, supply protein stability index for HNGWVTSLATSAGQPNL [ASC1]
Response: 2.09

---

test: protein stability index of a GFP-peptide fusion (yeast GPS) (PSI 1-4); higher = more stable; sorted into four equal gates, so the index is relative within each strain
assay.conditions: pdr5∆
List of protein stability index values.
Returns: the value as a bare number; no unit string appended.

Observe how each entry below is paired with its result.
biopolymer.sequence	reported.property	observed
QDNKKIYVHVRRSTPFS [ESC2]	protein stability index	2.49
ISVGLYDTTPLLDTNSL [SKI6]	protein stability index	2.88
EITVVKPDSDIVALSSE [PRE6]	protein stability index	3.23
NFKKFNERRKDLAERAS [SMC3]	protein stability index	1.97
RSEFIESLLNWINRSDG [YJR042W/NUP85]	protein stability index	3.11

Prompt: Using known records, supply protein stability index for KLNTLSEILSFDPVYTT [YML103C/NUP188]
Response: 2.77

Prompt: Using known records, supply protein stability index for IGVIAGGGRVDKPLLKA [RPL2A]
Response: 3.16

Prompt: Using known records, supply protein stability index for SNLEKLLFINSSKLVDV [YML103C/NUP188]
Response: 2.07
